The following compounds are listed with their measured IRAK4 SPR binding Half Life values.
Biological target: catalytical domain of human IRAK4 (a.a. 163-460) (Homo sapiens (Human), UniProt Q9NWZ3)
Sequence (Q9NWZ3 163-460): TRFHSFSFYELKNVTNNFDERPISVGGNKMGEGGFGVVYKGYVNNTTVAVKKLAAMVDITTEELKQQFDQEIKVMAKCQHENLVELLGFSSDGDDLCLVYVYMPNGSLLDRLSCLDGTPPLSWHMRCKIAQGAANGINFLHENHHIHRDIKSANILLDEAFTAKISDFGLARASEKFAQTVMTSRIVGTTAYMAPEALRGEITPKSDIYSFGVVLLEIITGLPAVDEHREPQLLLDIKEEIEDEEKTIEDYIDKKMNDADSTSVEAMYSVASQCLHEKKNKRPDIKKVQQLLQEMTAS
Assay: IRAK4 SPR binding assay
Details: single-cycle, 1:1 interaction model
reported.property: IRAK4 SPR binding Half Life

compound	reported.property	measured.value
CC12CC(n3cc4cc(C(=O)Nc5cccn([C@H]6C[C@H]6F)c5=O)c(OC5CC5)nc4n3)(CO1)C2 [Example 85]	IRAK4 SPR binding Half Life	0.8 h
CC(C)Oc1cc2nn([C@]34CC[C@](C)(C3)OC4)cc2cc1C(=O)Nc1cccn([C@H]2C[C@H]2F)c1=O (single isomer, unassigned) [Example 51]	IRAK4 SPR binding Half Life	2.32 h
CC(C)Oc1nc2nn([C@@]34CC[C@@](C)(C3)OC4)cc2cc1C(=O)Nc1cccn(C2CC2)c1=O (single isomer, unassigned) [Example 47]	IRAK4 SPR binding Half Life	0.9 h
C[C@]12CC[C@](n3cc4cc(C(=O)Nc5cccn(C6CC6)c5=O)c(OC5CCC5)cc4n3)(CO1)C2 (single isomer, unassigned) [Example 41]	IRAK4 SPR binding Half Life	0.527 h
CC(C)Oc1nc2nn(C34COC(CF)(C3)C4)cc2cc1C(=O)Nc1cccn(C2CC2)c1=O [Example 10]	IRAK4 SPR binding Half Life	1.22 h
CC(C)Oc1nc2nn(C34COC(C)(C3)C4)cc2cc1C(=O)Nc1cccn(C2CC2)c1=O [Example 9]	IRAK4 SPR binding Half Life	1.34 h

----------
Biological target: UniProtKB Q9NWZ3
Experiment: IRAK4 2-hour 1 mM ATP Biochemical Assay (MesoScale Detection format)
Details: 100 pM IRAK4, read-out: IRAK4 IC50
pIC50: −log10 of the molar value.

compound	tgt	pIC50
CC(C)Oc1cc2nn(C34COC(C3)C4)cc2cc1C(=O)Nc1cccn([C@@H]2C[C@@H]2C)c1=O	UniProtKB Q9NWZ3	7.58
COCC12CC(n3cc4cc(C(=O)Nc5cccn([C@H]6C[C@@H]6F)c5=O)c(OC5CCC5)cc4n3)(CO1)C2 (single isomer, unassigned)	UniProtKB Q9NWZ3	8.82
COCC12CC(n3cc4cc(C(=O)Nc5cccn([C@H]6C[C@H]6F)c5=O)c(OC5CC5)nc4n3)(CO1)C2 (single isomer, unassigned)	UniProtKB Q9NWZ3	9.70
CC(C)Oc1nc2nn(C34COC(CF)(C3)C4)cc2cc1C(=O)Nc1cccn(C2(C)CC2)c1=O	UniProtKB Q9NWZ3	8.18
CC(C)Oc1nc2nn(C34COC(C)(C3)C4)cc2cc1C(=O)Nc1cccn(C2(C)CC2)c1=O	UniProtKB Q9NWZ3	8.37
CC(C)Oc1nc2nn([C@@H]3CCCOC3)cc2cc1C(=O)Nc1cccn(C2CC2)c1=O	UniProtKB Q9NWZ3	9.70
CC(C)Oc1nc2nn(C34COC(C3)C4)cc2cc1C(=O)Nc1cccn(C2CC2)c1=O	UniProtKB Q9NWZ3	9.40
C[C@@H]1C[C@@H]1n1cccc(NC(=O)c2cc3cn(C45COC(C)(C4)C5)nc3nc2OC2CC2)c1=O	UniProtKB Q9NWZ3	9.05
COC[C@@]12CC[C@@](n3cc4cc(C(=O)Nc5cccn(C6CC6)c5=O)c(OC(C)C)nc4n3)(CO1)C2	UniProtKB Q9NWZ3	9.70
CC(C)Oc1cc2nn(C34COC(C3)C4)cc2cc1C(=O)Nc1cccn([C@H]2C[C@H]2F)c1=O	UniProtKB Q9NWZ3	9.70
C[C@@H]1C[C@@H]1n1cccc(NC(=O)c2cc3cn(C45COC(C)(C4)C5)nc3nc2OC2CCC2)c1=O	UniProtKB Q9NWZ3	9.10
C[C@]12CC[C@](n3cc4cc(C(=O)Nc5cccn(C6CC6)c5=O)c(OC5CCC5)cc4n3)(CO1)C2 (single isomer, unassigned)	UniProtKB Q9NWZ3	9.70
C[C@@]12CC[C@@](n3cc4cc(C(=O)Nc5cccn(C6CC6)c5=O)c(OC5CCC5)nc4n3)(CO1)C2	UniProtKB Q9NWZ3	9.40
CC(C)Oc1cc2nn([C@]34CC[C@](C)(C3)OC4)cc2cc1C(=O)Nc1cccn([C@H]2C[C@@H]2F)c1=O (single isomer, unassigned)	UniProtKB Q9NWZ3	9.22

----------
Molecular target: IRAK4 (Homo sapiens (Human))
Experiment: IRAK4 2-hour 1 mM ATP Biochemical Assay (MesoScale Detection format)
Conditions: 100 pM IRAK4, read-out: IRAK4 IC50
The following compounds are listed with their measured log10 IC50 values.
reported.property: log10 IC50 (log10 of the value in nM)

smiles.str	tgt	log10 IC50
CC(C)Oc1nc2nn(C34COC(C)(C3)C4)cc2cc1C(=O)Nc1cccn([C@H]2CC2(C)C)c1=O	IRAK4 (Homo sapiens (Human))	0.11
CC(C)Oc1nc2nn(C34COC(CF)(C3)C4)cc2cc1C(=O)Nc1cccn(C2CC2)c1=O	IRAK4 (Homo sapiens (Human))	-0.70
COCC12CC(n3cc4cc(C(=O)Nc5cccn([C@H]6C[C@H]6C)c5=O)c(OC(C)C)nc4n3)(CO1)C2	IRAK4 (Homo sapiens (Human))	-0.40
CC12CC(n3cc4cc(C(=O)Nc5cccn([C@H]6C[C@H]6F)c5=O)c(OC5CCC5)nc4n3)(CO1)C2	IRAK4 (Homo sapiens (Human))	-1.00
COCC12CC(n3cc4cc(C(=O)Nc5cccn(C6CC6)c5=O)c(OC(C)C)cc4n3)(CO1)C2	IRAK4 (Homo sapiens (Human))	-0.30
COCC12CC(n3cc4cc(C(=O)Nc5cccn([C@@H]6C[C@H]6F)c5=O)c(OC5CCC5)cc4n3)(CO1)C2	IRAK4 (Homo sapiens (Human))	0.23
COC[C@]12CC[C@](n3cc4cc(C(=O)Nc5cccn(C6CC6)c5=O)c(OC(C)C)nc4n3)(CO1)C2	IRAK4 (Homo sapiens (Human))	-0.70

----------
Target: MDR1 (Homo sapiens (Human))
Sequence (P08183 whole entry): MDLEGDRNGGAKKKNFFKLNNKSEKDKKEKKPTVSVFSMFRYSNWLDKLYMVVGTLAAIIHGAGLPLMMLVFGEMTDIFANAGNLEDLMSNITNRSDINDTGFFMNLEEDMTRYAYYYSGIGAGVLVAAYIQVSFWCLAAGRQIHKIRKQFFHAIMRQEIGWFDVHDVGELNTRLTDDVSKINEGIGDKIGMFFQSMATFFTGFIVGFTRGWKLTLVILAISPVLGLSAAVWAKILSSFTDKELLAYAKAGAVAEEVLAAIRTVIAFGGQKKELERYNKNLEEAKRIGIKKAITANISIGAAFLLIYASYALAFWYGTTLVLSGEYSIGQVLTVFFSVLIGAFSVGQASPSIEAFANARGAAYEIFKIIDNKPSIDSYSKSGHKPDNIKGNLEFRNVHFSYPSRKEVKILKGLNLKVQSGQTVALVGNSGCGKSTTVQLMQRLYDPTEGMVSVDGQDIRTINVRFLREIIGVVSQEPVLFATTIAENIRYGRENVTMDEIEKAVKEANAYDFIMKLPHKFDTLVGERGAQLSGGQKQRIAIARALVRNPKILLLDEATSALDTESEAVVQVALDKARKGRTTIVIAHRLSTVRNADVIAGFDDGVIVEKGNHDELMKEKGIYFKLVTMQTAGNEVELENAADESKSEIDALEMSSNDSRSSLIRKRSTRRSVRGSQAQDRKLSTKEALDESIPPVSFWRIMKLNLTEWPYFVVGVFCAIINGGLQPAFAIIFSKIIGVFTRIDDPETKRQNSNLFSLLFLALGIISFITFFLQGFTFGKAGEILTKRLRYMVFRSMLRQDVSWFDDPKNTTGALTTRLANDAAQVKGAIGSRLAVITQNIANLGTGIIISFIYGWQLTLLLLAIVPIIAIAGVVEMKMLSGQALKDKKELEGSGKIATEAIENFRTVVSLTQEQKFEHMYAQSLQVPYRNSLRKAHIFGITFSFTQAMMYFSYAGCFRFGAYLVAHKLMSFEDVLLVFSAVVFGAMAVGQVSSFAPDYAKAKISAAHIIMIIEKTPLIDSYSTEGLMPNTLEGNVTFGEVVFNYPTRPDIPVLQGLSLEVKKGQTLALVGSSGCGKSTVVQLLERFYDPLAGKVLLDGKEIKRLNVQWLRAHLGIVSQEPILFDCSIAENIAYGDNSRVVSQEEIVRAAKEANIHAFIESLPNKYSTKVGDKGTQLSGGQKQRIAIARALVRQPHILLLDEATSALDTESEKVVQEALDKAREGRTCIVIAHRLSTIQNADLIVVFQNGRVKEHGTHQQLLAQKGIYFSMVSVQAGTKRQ
Test: MDR1-MDCK assay (apparent permeability, efflux ratio)
Format: in vitro ADME
Conditions: human, MDCK-MDR1, 1 μM, read-out: MDR1-MDCK_Efflux Ratio

compound	efflux ratio at 120 min, 1 μM
CC(C)Oc1cc2nn(C34COC(CF)(C3)C4)cc2cc1C(=O)Nc1cccn([C@H]2C[C@H]2F)c1=O	5.16
C[C@@H]1C[C@@H]1n1cccc(NC(=O)c2cc3cn(C45COC(C)(C4)C5)nc3nc2OC2CCC2)c1=O	1.09
COCC12CC(n3cc4cc(C(=O)Nc5cccn([C@H]6C[C@@H]6F)c5=O)c(OC(C)C)cc4n3)(CO1)C2 (single isomer, unassigned)	3.31
COCC12CCC(n3cc4cc(C(=O)Nc5cccn(C6CC6)c5=O)c(OC(C)C)nc4n3)(CO1)C2 (stereo not shown)	2.79
COCC12CC(n3cc4cc(C(=O)Nc5cccn([C@H]6C[C@H]6C)c5=O)c(OC(C)C)nc4n3)(CO1)C2	2.09
CC(C)Oc1nc2nn(C[C@H]3CCOC3)cc2cc1C(=O)Nc1cccn(C2CC2)c1=O	4.88
CC(C)Oc1cc2nn([C@@]34CC[C@@](C)(C3)OC4)cc2cc1C(=O)Nc1cccn([C@H]2C[C@@H]2F)c1=O (single isomer, unassigned)	1.75
COCC12CC(n3cc4cc(C(=O)Nc5cccn([C@@H]6C[C@H]6F)c5=O)c(OC(C)C)cc4n3)(CO1)C2 (single isomer, unassigned)	3.71
CC(C)Oc1cc2nn(C34COC(C)(C3)C4)cc2cc1C(=O)Nc1cccn([C@H]2C[C@H]2F)c1=O (single isomer, unassigned)	2.71
CC12CC(n3cc4cc(C(=O)Nc5cccn([C@@H]6C[C@@H]6F)c5=O)c(OC5CCC5)nc4n3)(CO1)C2 (racemic) [Example 25]	2.71
CC(C)Oc1nc2nn(C34COC(CF)(C3)C4)cc2cc1C(=O)Nc1cccn(C2(C)CC2)c1=O	1.91
COCC12CC(n3cc4cc(C(=O)Nc5cccn([C@@H]6C[C@H]6F)c5=O)c(OC(C)C)nc4n3)(CO1)C2 (single isomer, unassigned)	5.06
CC(C)Oc1nc2nn(C34COC(C3)C4)cc2cc1C(=O)Nc1cccn(C2CC2)c1=O	4.72

----------
Biological target: IRAK4 (Homo sapiens (Human), UniProt Q9NWZ3)
Sequence (Q9NWZ3 whole entry): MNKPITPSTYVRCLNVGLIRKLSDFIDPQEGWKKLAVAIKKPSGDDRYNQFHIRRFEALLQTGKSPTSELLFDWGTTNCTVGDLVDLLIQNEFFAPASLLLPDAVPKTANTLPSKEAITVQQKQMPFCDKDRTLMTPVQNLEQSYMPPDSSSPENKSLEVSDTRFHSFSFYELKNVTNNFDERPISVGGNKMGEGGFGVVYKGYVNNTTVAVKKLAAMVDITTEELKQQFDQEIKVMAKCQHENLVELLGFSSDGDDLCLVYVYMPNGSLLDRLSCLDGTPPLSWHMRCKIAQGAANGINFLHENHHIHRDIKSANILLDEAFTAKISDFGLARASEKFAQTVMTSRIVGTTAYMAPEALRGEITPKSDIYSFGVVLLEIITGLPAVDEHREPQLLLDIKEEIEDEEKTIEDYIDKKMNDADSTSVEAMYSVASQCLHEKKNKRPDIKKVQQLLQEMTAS
Assay: IRAK4 2-hour 1 mM ATP Biochemical Assay (MesoScale Detection format)
Details: 100 pM IRAK4, read-out: IRAK4 IC50
pIC50: −log10 of the molar value.

compound	tgt	pIC50
CC12CC(n3cc4cc(C(=O)Nc5cccn(C6CC6)c5=O)c(OC5CCC5)nc4n3)(CO1)C2 [Example 24]	IRAK4 (Homo sapiens (Human), UniProt Q9NWZ3)	9.40
CC(C)Oc1cc2nn(C34COC(CF)(C3)C4)cc2cc1C(=O)Nc1cccn([C@H]2C[C@@H]2C)c1=O (single isomer, unassigned) [Example 70]	IRAK4 (Homo sapiens (Human), UniProt Q9NWZ3)	8.64
COCC12CC(n3cc4cc(C(=O)Nc5cccn(C6CC6)c5=O)c(OC(C)C)nc4n3)(CO1)C2 [Example 11]	IRAK4 (Homo sapiens (Human), UniProt Q9NWZ3)	9.70
CC(C)Oc1cc2nn(C34COC(CF)(C3)C4)cc2cc1C(=O)Nc1cccn([C@@H]2C[C@H]2C)c1=O (single isomer, unassigned) [Example 69]	IRAK4 (Homo sapiens (Human), UniProt Q9NWZ3)	9.30
CC(C)Oc1nc2nn(C34COC(C3)C4)cc2cc1C(=O)Nc1cccn([C@H]2C[C@H]2C)c1=O [Example 80]	IRAK4 (Homo sapiens (Human), UniProt Q9NWZ3)	9.30
CC(C)Oc1cc2nn([C@@]34CC[C@@](C)(C3)OC4)cc2cc1C(=O)Nc1cccn([C@@H]2C[C@H]2F)c1=O (single isomer, unassigned) [Example 59]	IRAK4 (Homo sapiens (Human), UniProt Q9NWZ3)	9.30
COCC12CC(n3cc4cc(C(=O)Nc5cccn([C@H]6C[C@H]6C)c5=O)c(OC(C)C)cc4n3)(CO1)C2 [Example 78]	IRAK4 (Homo sapiens (Human), UniProt Q9NWZ3)	9.15
